The reader will find reported IC50 at 72 h values listed item by item below.
experimentalProtocol: Cytotoxicity against HEK293T cells assessed as inhibition of cell growth incubated for 72 hrs under dark condition by MTT assay
Type: toxicity, cell-based, HEK-293T
conditionLabel: human

{"columns": ["chemicalStructure", "reportedProperty", "measurement"],
 "data": [
  ["COc1cccc(COC(C)=O)c1OCC1=C2C(C)=C(I)C(C)=[N+]2[B-](C)(C)n2c(C)c(I)c(C)c21", "IC50 at 72 h", "> 100 µM"],
  ["COc1cccc(COC(C)=O)c1OCC1=C2C(C)=C(Br)C(C)=[N+]2[B-](C)(C)n2c(C)c(Br)c(C)c21", "IC50 at 72 h", "≥ 100 µM"],
  ["COc1cccc(COC(C)=O)c1OCC1=C2C(C)=CC(C)=[N+]2[B-](C)(C)n2c(C)cc(C)c21", "IC50 at 72 h", "≥ 100 µM"]
]}

Lookup: Tell me the measured IC50 at 72 h of CC1=CC(C)=[N+]2C1=C(CO)c1c(C)cc(C)n1[B-]2(C)C , please.
Found: 38 µM

###

experimentalProtocol: Induction of singlet oxygen production in CH3CN assessed as decrease in fluorescence intensity at 450 nm under photoirradiation with visible light and measured after 15 sec by DPBF based assay relative to control
Assay type: functional
Design: scale not given: the % may be the effect or the level left
reportedProperty: Activity (%)
Numbers only here, please. The scale is %.

Below, 4 compounds whose answers are already recorded.
{"columns": ["chemicalStructure", "Activity (%)"],
 "data": [
  ["COc1cccc(COC(C)=O)c1OCC1=C2C(C)=C(Br)C(C)=[N+]2[B-](C)(C)n2c(C)c(Br)c(C)c21", 63],
  ["CC1=CC(C)=[N+]2C1=C(COc1ccccc1CO)c1c(C)cc(C)n1[B-]2(C)C", 1.1],
  ["CC(=O)OCc1ccccc1OCC1=C2C(C)=CC(C)=[N+]2[B-](C)(C)n2c(C)cc(C)c21", 4.9],
  ["COc1cccc(COC(C)=O)c1OCC1=C2C(C)=CC(C)=[N+]2[B-](C)(C)n2c(C)cc(C)c21", 1]
]}

Could you now look at the following compound, please?
Lookup: Please report the recorded Activity for COc1cccc(COC(C)=O)c1OCC1=C2C(C)=C(I)C(C)=[N+]2[B-](C)(C)n2c(C)c(I)c(C)c21 .
Found: 84.9

###

experimentalProtocol: Cytotoxicity against human HaCaT cells assessed as inhibition of cell growth incubated for 72 hrs under dark condition by MTT assay
Assay type: toxicity, cell-based
Attribute: IC50 at 72 h

Observe how each entry below is paired with its result.
{"columns": ["chemicalStructure", "IC50 at 72 h"],
 "data": [
  ["CC1=CC(C)=[N+]2C1=C(CO)c1c(C)cc(C)n1[B-]2(C)C", "68 µM"],
  ["COc1cccc(COC(C)=O)c1OCC1=C2C(C)=C(Br)C(C)=[N+]2[B-](C)(C)n2c(C)c(Br)c(C)c21", "> 100 µM"],
  ["COc1cccc(COC(C)=O)c1OCC1=C2C(C)=CC(C)=[N+]2[B-](C)(C)n2c(C)cc(C)c21", "> 100 µM"]
]}

Then there is this compound:
Lookup: I am curious: what IC50 at 72 h value has been reported for COc1cccc(COC(C)=O)c1OCC1=C2C(C)=C(I)C(C)=[N+]2[B-](C)(C)n2c(C)c(I)c(C)c21 ?
Found: > 100 µM

###

Tested on: MCF7
experimentalProtocol: Antiproliferative activity against human MCF7 cells assessed as inhibition of cell growth incubated for 72 hrs under photoirradiation with 6 cool white lamps for 15 mins at 4,28 and 52 hrs after compound addition by MTT assay
Assay type: functional, cell-based
conditionLabel: MCF7, light or radiation study
reportedProperty: pIC50
Keep it numeric: pIC50 is minus log10 of the concentration in mol/L.

{"columns": ["compound", "measurement"],
 "data": [
  ["CC(=O)OCc1ccccc1OCC1=C2C(C)=CC(C)=[N+]2[B-](C)(C)n2c(C)cc(C)c21", 6.70],
  ["CC1=C(I)C(C)=[N+]2C1=C(COc1ccccc1CO)c1c(C)c(I)c(C)n1[B-]2(C)C", 6.89],
  ["COc1cccc(COC(C)=O)c1OCC1=C2C(C)=CC(C)=[N+]2[B-](C)(C)n2c(C)cc(C)c21", 6.70]
]}

Lookup: Give the measured pIC50 of CC1=CC(C)=[N+]2C1=C(C=O)c1c(C)cc(C)n1[B-]2(C)C .
Found: 4.82

Lookup: What do we get for CC(=O)OCc1ccccc1OCC1=C2C(C)=C(I)C(C)=[N+]2[B-](C)(C)n2c(C)c(I)c(C)c21 ?
Found: 6.77

Lookup: Another compound: COc1cccc(COC(C)=O)c1OCC1=C2C(C)=C(I)C(C)=[N+]2[B-](C)(C)n2c(C)c(I)c(C)c21
Found: 6.89

Lookup: Try this compound next: CC1=CC(C)=[N+]2C1=C(CO)c1c(C)cc(C)n1[B-]2(C)C
Found: 6.82

Lookup: How about COc1cccc(CO)c1OCC1=C2C(C)=CC(C)=[N+]2[B-](C)(C)n2c(C)cc(C)c21 ?
Found: 6.70

Lookup: Continue with CC1=C(Br)C(C)=[N+]2C1=C(COc1ccccc1CO)c1c(C)c(Br)c(C)n1[B-]2(C)C
Found: 6.64

Lookup: Next compound up: COc1cccc(CO)c1OCC1=C2C(C)=C(Br)C(C)=[N+]2[B-](C)(C)n2c(C)c(Br)c(C)c21
Found: 6.82

Lookup: Then this compound: COc1cccc(CO)c1OCC1=C2C(C)=C(I)C(C)=[N+]2[B-](C)(C)n2c(C)c(I)c(C)c21
Found: 7.00

Lookup: Try this compound next: CO[B-]1(C)n2c(C)c(I)c(C)c2C(COc2ccccc2CO)=C2C(C)=C(I)C(C)=[N+]21 (centres undefined)
Found: 5.10

Lookup: Ok, now CO[B-]1(C)n2c(C)c(I)c(C)c2C(COc2ccccc2COC(C)=O)=C2C(C)=C(I)C(C)=[N+]21 (centres undefined)
Found: 6.15

Lookup: Then what about the compound COc1cccc(COC(C)=O)c1OCC1=C2C(C)=C(Br)C(C)=[N+]2[B-](C)(OC)n2c(C)c(Br)c(C)c21 (centres undefined) ?
Found: 5.70

Lookup: CC(=O)OCc1ccccc1OCC1=C2C(C)=C(Br)C(C)=[N+]2[B-](C)(C)n2c(C)c(Br)c(C)c21 ?
Found: 6.77

Lookup: Again, but for CO[B-]1(C)n2c(C)c(Br)c(C)c2C(COc2ccccc2CO)=C2C(C)=C(Br)C(C)=[N+]21 (centres undefined)
Found: 5.22

Lookup: Here is the next compound: COc1cccc(COC(C)=O)c1OCC1=C2C(C)=C(Br)C(C)=[N+]2[B-](C)(C)n2c(C)c(Br)c(C)c21
Found: 6.82

Lookup: One more compound: CO[B-]1(C)n2c(C)cc(C)c2C(COc2ccccc2COC(C)=O)=C2C(C)=CC(C)=[N+]21 (centres undefined)
Found: 5.93

Lookup: Repeat with CC1=CC(C)=[N+]2C1=C(COc1ccccc1CO)c1c(C)cc(C)n1[B-]2(C)C
Found: 6.70

###

System: MCF7
experimentalProtocol: Antiproliferative activity against human MCF7 cells assessed as inhibition of cell growth incubated for 72 hrs under dark condition by MTT assay
Assay type: functional, cell-based
conditionLabel: MCF7, 72 h
reportedProperty: pIC50
pIC50 here is simply -log10 of the concentration when that concentration is written in mol/L.

{"columns": ["compound", "targetSystem", "pIC50"],
 "data": [
  ["CC(=O)OCc1ccccc1OCC1=C2C(C)=C(Br)C(C)=[N+]2[B-](C)(C)n2c(C)c(Br)c(C)c21", "MCF7", 4.74],
  ["CO[B-]1(C)n2c(C)cc(C)c2C(COc2ccccc2COC(C)=O)=C2C(C)=CC(C)=[N+]21 (centres undefined)", "MCF7", 4.89],
  ["CC(=O)OCc1ccccc1OCC1=C2C(C)=C(I)C(C)=[N+]2[B-](C)(C)n2c(C)c(I)c(C)c21", "MCF7", 4.20],
  ["CC1=C(Br)C(C)=[N+]2C1=C(COc1ccccc1CO)c1c(C)c(Br)c(C)n1[B-]2(C)C", "MCF7", 4.77],
  ["COc1cccc(CO)c1OCC1=C2C(C)=CC(C)=[N+]2[B-](C)(C)n2c(C)cc(C)c21", "MCF7", 4.82]
]}

Lookup: Sample CO[B-]1(C)n2c(C)c(I)c(C)c2C(COc2ccccc2COC(C)=O)=C2C(C)=C(I)C(C)=[N+]21 (centres undefined) — what was its pIC50?
Found: 4.57

Lookup: Check COc1cccc(COC(C)=O)c1OCC1=C2C(C)=C(Br)C(C)=[N+]2[B-](C)(OC)n2c(C)c(Br)c(C)c21 (centres undefined) too.
Found: 4.82

Lookup: Moving on to CC(=O)OCc1ccccc1OCC1=C2C(C)=CC(C)=[N+]2[B-](C)(C)n2c(C)cc(C)c21
Found: 4.57

Lookup: Can you check CO[B-]1(C)n2c(C)c(Br)c(C)c2C(COc2ccccc2CO)=C2C(C)=C(Br)C(C)=[N+]21 (centres undefined) next?
Found: 4.57

Lookup: Follow-up item: CC1=CC(C)=[N+]2C1=C(C=O)c1c(C)cc(C)n1[B-]2(C)C
Found: 4.70

Lookup: Another compound to look at: CC1=CC(C)=[N+]2C1=C(COc1ccccc1CO)c1c(C)cc(C)n1[B-]2(C)C
Found: 4.85

Lookup: For COc1cccc(CO)c1OCC1=C2C(C)=C(I)C(C)=[N+]2[B-](C)(C)n2c(C)c(I)c(C)c21 then?
Found: 4.92

Lookup: Param item: COc1cccc(COC(C)=O)c1OCC1=C2C(C)=CC(C)=[N+]2[B-](C)(C)n2c(C)cc(C)c21
Found: 4.33

Lookup: Cool, now COc1cccc(CO)c1OCC1=C2C(C)=C(Br)C(C)=[N+]2[B-](C)(C)n2c(C)c(Br)c(C)c21
Found: 4.96

Lookup: Item: CC1=C(I)C(C)=[N+]2C1=C(COc1ccccc1CO)c1c(C)c(I)c(C)n1[B-]2(C)C
Found: 4.57

Lookup: One more compound: CO[B-]1(C)n2c(C)c(I)c(C)c2C(COc2ccccc2CO)=C2C(C)=C(I)C(C)=[N+]21 (centres undefined)
Found: 5.10
